Reference source for all entries: the OligoGym collection

Known caspase activation (% of PBS control) of a selection of sequences
Study target: HIF1A
Method notes: HeLa, 100 nM transfected, 24 h, mean of 3
Stated conditions: ASO
Bases are written 5' to 3'; sugars and linkages follow in the same order, as letters with counts (s phosphorothioate, o phosphodiester; PS: all linkages phosphorothioate). C may stand for cytosine or 5-methylcytosine; the collection does not tell. l = locked nucleic acid (LNA); d = 2'-deoxy (DNA)
Form field (numeric): enter value without unit.

Sample records with caspase activation (% of PBS control):
[[record]]
seq = "TGGCAAGCATCCTGTA (sugars lldllddddddlldll, PS)"
property = "caspase activation (% of PBS control)"
result = 493

[[record]]
seq = "GTTACTGCCTTCTTAC (sugars ldldddddddddldll, PS)"
property = "caspase activation (% of PBS control)"
result = 112

[[record]]
seq = "TGGCAAGCATCCT (sugars ldldddddddldl, PS)"
property = "caspase activation (% of PBS control)"
result = 170

[[record]]
seq = "GTTACTGCCTTCTTAC (sugars l5 d9 l2, PS)"
property = "caspase activation (% of PBS control)"
result = 363


Missing value: caspase activation (% of PBS control), HIF1A, entry TGGCAAGCATCCTGTA (sugars ldldlddddddlddll, PS) . Fill in?
178

* * *

Study target: HIF1A
Method notes: HeLa, 100 nM transfected, 24 h, mean of 3
Stated conditions: ASO
Bases are written 5' to 3'; sugars and linkages follow in the same order, as letters with counts (s phosphorothioate, o phosphodiester; PS: all linkages phosphorothioate). C may stand for cytosine or 5-methylcytosine; the collection does not tell. l = locked nucleic acid (LNA); d = 2'-deoxy (DNA)
Binned caspase activation (% of PBS control); ranges: L: < 200; M: ≥ 200 and < 400; H: ≥ 400

Solved entries:
[[record]]
seq = "TGGCAAGCATCCTGTA (sugars l2 d9 l1 d2 l2, PS)"
label_value = "H"

[[record]]
seq = "GTTACTGCCTTCTTAC (sugars l4 d7 l5, PS)"
label_value = "H"

[[record]]
seq = "TGGCAAGCATCCTGTA (sugars ldldlddddddldldl, PS)"
label_value = "L"


Classify this sequence: GTTACTGCCTTCT (sugars l1 d1 l2 d8 l1, PS)
L

GET /class?item= TGGCAAGCATCCTGTA (sugars lldldddddddldddl, PS)
M

* * *

Study target: HIF1A
Method notes: HeLa, 100 nM transfected, 24 h, mean of 3
Stated conditions: ASO
Bases are written 5' to 3'; sugars and linkages follow in the same order, as letters with counts (s phosphorothioate, o phosphodiester; PS: all linkages phosphorothioate). C may stand for cytosine or 5-methylcytosine; the collection does not tell. l = locked nucleic acid (LNA); d = 2'-deoxy (DNA)
# Lookup of reported caspase activation (% of PBS control) keyed by entry
Number only, no unit.

A selection of reference data follows.
[[record]]
seq = "GTTACTGCCTTCT (sugars l1 d2 l1 d8 l1, PS)"
result = 110

[[record]]
seq = "TGGCAAGCATCCTGTA (sugars ldllddddddddldll, PS)"
result = 466


Fill blank: measured caspase activation (% of PBS control) of the sequence GTTACTGCCTTCTTAC (sugars ldldlddddddddlll, PS) is ____.
214

* * *

Study target: HIF1A
Method notes: HeLa, 100 nM transfected, 24 h, mean of 3
Stated conditions: ASO
Bases are written 5' to 3'; sugars and linkages follow in the same order, as letters with counts (s phosphorothioate, o phosphodiester; PS: all linkages phosphorothioate). C may stand for cytosine or 5-methylcytosine; the collection does not tell. l = locked nucleic acid (LNA); d = 2'-deoxy (DNA)
# caspase activation (% of PBS control) >= 400 gives t, anything below gives f

Sample answers from the record:
[[record]]
seq = "GGCAAGCATCCTG (sugars l1 d1 l2 d7 l2, PS)"
label_value = "t"

[[record]]
seq = "TGGCAAGCATCCTGTA (sugars l2 d10 l2 d1 l1, PS)"
label_value = "f"

[[record]]
seq = "GCAAGCATCCTGT (sugars l1 d2 l1 d8 l1, PS)"
label_value = "f"

[[record]]
seq = "TGGCAAGCATCCTGTA (sugars lddldddddddddldl, PS)"
label_value = "f"

[[record]]
seq = "GTTACTGCCTTCTTAC (sugars l1 d2 l2 d6 l5, PS)"
label_value = "t"

[[record]]
seq = "TTACTGCCTTCTT (sugars l3 d8 l2, PS)"
label_value = "f"


Field: next sequence
Does caspase activation (% of PBS control) meet or surpass 400 for TGGCAAGCATCCTGTA (sugars l1 d3 l1 d10 l1, PS) ?
f

* * *

Study target: HIF1A
Method notes: HeLa, 100 nM transfected, 24 h, mean of 3
Stated conditions: ASO
Bases are written 5' to 3'; sugars and linkages follow in the same order, as letters with counts (s phosphorothioate, o phosphodiester; PS: all linkages phosphorothioate). C may stand for cytosine or 5-methylcytosine; the collection does not tell. l = locked nucleic acid (LNA); d = 2'-deoxy (DNA)
Property: caspase activation (% of PBS control)
# respond with the number and nothing more

// solved cases for caspase activation (% of PBS control) follow
[[record]]
seq = "GTTACTGCCTTCTTAC (sugars l3 d8 l1 d3 l1, PS)"
result = 198

[[record]]
seq = "TGGCAAGCATCCTGTA (sugars l2 d1 l2 d10 l1, PS)"
result = 401

[[record]]
seq = "GTTACTGCCTTCTTAC (sugars llldlddddddllldl, PS)"
result = 485

[[record]]
seq = "ACTGCCTTCTTAC (sugars l1 d1 l1 d8 l2, PS)"
result = 191

[[record]]
seq = "TGGCAAGCATCCTGTA (sugars l1 d1 l3 d9 l2, PS)"
result = 463


For the record TACTGCCTTCTTA (sugars l1 d1 l2 d6 l3, PS) , what value of caspase activation (% of PBS control) is listed for HIF1A?
585

Recall the recorded caspase activation (% of PBS control) for GTTACTGCCTTCTTAC (sugars l1 d2 l2 d10 l1, PS) with HIF1A and state it.
185

Please tell me: caspase activation (% of PBS control) of TGGCAAGCATCCTGTA (sugars l1 d2 l1 d7 l5, PS) , system HIF1A?
416

Record TGGCAAGCATCCTGTA (sugars l4 d8 l4, PS) : what is its caspase activation (% of PBS control) with HIF1A?
349

# get_value(readout= caspase activation (% of PBS control), system= HIF1A) for TGGCAAGCATCCTGTA (sugars lldlldddddddlddl, PS)
459

Lab note: need caspase activation (% of PBS control) with HIF1A for entry GTTACTGCCTTCTTAC (sugars l1 d3 l1 d9 l2, PS) , please look it up.
103

Test system HIF1A; read-out caspase activation (% of PBS control); what value for TGGCAAGCATCCT (sugars l1 d2 l1 d6 l3, PS) ?
112

Kindly state the measured caspase activation (% of PBS control) obtained for ACTGCCTTCTTAC (sugars l1 d2 l1 d6 l3, PS) with HIF1A.
126

Look up caspase activation (% of PBS control) with HIF1A for this sequence: TGGCAAGCATCCTGTA (sugars lddllddddddllldl, PS)
416

State its caspase activation (% of PBS control) on HIF1A: ACTGCCTTCTTAC (sugars l3 d8 l2, PS)
339

* * *

Study target: HIF1A
Method notes: HeLa, 100 nM transfected, 24 h, mean of 3
Stated conditions: ASO
Bases are written 5' to 3'; sugars and linkages follow in the same order, as letters with counts (s phosphorothioate, o phosphodiester; PS: all linkages phosphorothioate). C may stand for cytosine or 5-methylcytosine; the collection does not tell. l = locked nucleic acid (LNA); d = 2'-deoxy (DNA)
Catalogue of sequences with associated caspase activation (% of PBS control)

// worked examples, caspase activation (% of PBS control) included
[[record]]
seq = "GTTACTGCCTTCTTAC (sugars llddldddddddldll, PS)"
property = "caspase activation (% of PBS control)"
result = 218

[[record]]
seq = "GTTACTGCCTTCT (sugars lddlddddddldl, PS)"
property = "caspase activation (% of PBS control)"
result = 110


Field: next sequence
Requested read-out: caspase activation (% of PBS control). Entry: TGGCAAGCATCCTGTA (sugars llddlddddddllddl, PS)
385
